Total Cell Count by entry:
System: Fibroblast
Assay: Multiplex assay against human fibroblast
Format: toxicity, cell-based
Conditions: 48 h, 1 µM, compound concentration 1 uM, replicate 1
property name: Total Cell Count

| compound | property name | assay value |
| --- | --- | --- |
| N#Cc1c(Oc2cccc(OS(=O)(=O)CCCC(F)(F)F)c2)cccc1C(F)(F)F | Total Cell Count | 145 |
| O=C1[C@H](Cc2ccc(O)cc2)N2C(=O)CCN(C(=O)NCc3ccccc3)[C@H]2CN1Cc1cccc2ccccc12 | Total Cell Count | 164 |
| Cl.NCCc1ccc(O)c(O)c1 [DOPAMINE HYDROCHLORIDE] | Total Cell Count | 110 |
| CC(C)COc1ccc(CNC(=O)N(Cc2ccc(F)cc2)C2CCN(C)CC2)cc1 | Total Cell Count | 204 |
| NCCc1cn(S(=O)(=O)c2c(Cl)nc3sccn23)c2ccccc12.O=C(O)C(=O)O | Total Cell Count | 177 |
| CCc1cc2cc(NS(=O)(=O)c3ccc(C#N)cc3)ccc2n(CC)c1=O | Total Cell Count | 150 |
| CN(C)C(=O)Cn1cc(-c2ccc(-c3cncc4ccccc34)cc2)cn1 | Total Cell Count | 144 |
| Cc1c(CC(=O)O)c2cccnc2n1Cc1ccc(S(C)(=O)=O)cc1C(F)(F)F | Total Cell Count | 132 |
| CCCOc1ccc2[nH]cc(C3=CCNCC3)c2n1.Cl | Total Cell Count | 162 |
| Cc1onc(-c2ccccc2Cl)c1C(=O)N(C)c1ccc(Cl)cc1 | Total Cell Count | 185 |
| Cc1noc(-c2ccc(-c3ccc(CC(=O)O)cc3)cc2)c1NC(=O)O[C@H](C)c1ccccc1Cl | Total Cell Count | 112 |
| CCCCC1=NC2(CCCC2)C(=O)N1Cc1ccc(-c2ccccc2-c2nnn[nH]2)cc1 | Total Cell Count | 173 |
| Cc1cnc(-c2cc(N3CCN(C(=O)CCS(C)(=O)=O)CC3)ncc2Cl)c(C)c1 | Total Cell Count | 109 |
| CC[C@@H](C)Nc1nc(C)nc2c(-c3ccc(OC)nc3C)c(C)nn12 | Total Cell Count | 160 |
| CCCCC(=O)N(Cc1ccc(-c2ccccc2-c2nnn[nH]2)cc1)[C@H](C(=O)O)C(C)C | Total Cell Count | 153 |
